assay: Liver microsomal stability (dog); assay type: in vitro ADME; conditions: amount of substrate remaining; 1 μM, 0.25 mg/mL microsomes, 37° C., 30 minutes
# note: boundary value 70% maps to Not met; liver microsomal stability, Dog (%) below it maps to Met

As a guide, the following entries are already answered.
Cn1ncc2ccc(NN=C(C#N)C#N)cc21 [Compound 63] ... Not met
N#CC(C#N)=NNc1ccc(-c2ncccn2)cc1 [Compound 1] ... Met
CN(C)c1ccc(-c2ccc(NN=C(C#N)C#N)cc2)cc1 [Compound 151] ... Not met
Cc1cnc(-c2ccc(NN=C(C#N)C#N)cc2)nc1 [Compound 4] ... Not met
N#CC(C#N)=NNc1ccc2cn[nH]c2c1 [Compound 70] ... Met

Answer whether the molecule Cc1ncsc1-c1ccc(NN=C(C#N)C#N)cc1 [Compound 12] has liver microsomal stability, Dog (%) strictly less than 70%
Not met

Answer whether the molecule N#CC(C#N)=NNc1ccc2nc(NC(=O)c3ccccc3O)sc2c1 [Compound 87] has liver microsomal stability, Dog (%) strictly less than 70%
Not met

Answer whether the molecule Cc1cnc(C(=O)Nc2nc3ccc(NN=C(C#N)C#N)cc3s2)cn1 [Compound 93] has liver microsomal stability, Dog (%) strictly less than 70%
Met

Answer whether the molecule N#CC(C#N)=NNc1ccc(-c2cnc3ccnn3c2)cc1 [Compound 50] has liver microsomal stability, Dog (%) strictly less than 70%
Not met
